All figures here come from patent US12581252B2.

Attribute: pIC50
Biological target: H1047R PIK3CA enzyme (Homo sapiens, UniProt P42336, H1047R)
Sequence (P42336 whole entry H1047R): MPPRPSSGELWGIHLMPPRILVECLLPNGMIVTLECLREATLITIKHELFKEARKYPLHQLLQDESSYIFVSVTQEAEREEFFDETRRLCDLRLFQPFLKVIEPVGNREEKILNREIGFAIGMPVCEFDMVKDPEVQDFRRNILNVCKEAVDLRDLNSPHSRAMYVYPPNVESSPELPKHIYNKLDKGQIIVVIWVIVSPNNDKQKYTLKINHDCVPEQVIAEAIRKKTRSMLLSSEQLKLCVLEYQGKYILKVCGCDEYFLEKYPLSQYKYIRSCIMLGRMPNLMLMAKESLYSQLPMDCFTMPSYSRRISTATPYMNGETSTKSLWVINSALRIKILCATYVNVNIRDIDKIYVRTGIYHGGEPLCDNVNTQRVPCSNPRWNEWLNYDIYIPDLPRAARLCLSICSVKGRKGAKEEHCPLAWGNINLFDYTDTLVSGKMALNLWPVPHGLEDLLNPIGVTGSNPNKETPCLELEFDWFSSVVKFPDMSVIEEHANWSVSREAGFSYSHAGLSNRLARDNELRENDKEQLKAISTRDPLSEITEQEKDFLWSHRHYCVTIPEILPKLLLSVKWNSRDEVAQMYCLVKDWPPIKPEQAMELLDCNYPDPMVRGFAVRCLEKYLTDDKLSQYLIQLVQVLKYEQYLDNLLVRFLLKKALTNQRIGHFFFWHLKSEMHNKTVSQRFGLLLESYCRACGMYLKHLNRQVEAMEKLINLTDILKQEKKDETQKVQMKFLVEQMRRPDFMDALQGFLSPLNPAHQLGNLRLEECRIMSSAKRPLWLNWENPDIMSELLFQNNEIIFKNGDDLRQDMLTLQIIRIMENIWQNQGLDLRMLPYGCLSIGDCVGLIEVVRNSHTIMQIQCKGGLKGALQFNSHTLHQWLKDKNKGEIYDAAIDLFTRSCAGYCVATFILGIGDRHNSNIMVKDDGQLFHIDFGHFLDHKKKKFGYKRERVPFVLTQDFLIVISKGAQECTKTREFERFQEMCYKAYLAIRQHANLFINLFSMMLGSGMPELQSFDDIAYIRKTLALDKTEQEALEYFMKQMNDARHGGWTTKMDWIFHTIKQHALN
Sequence (P27986 whole entry partner): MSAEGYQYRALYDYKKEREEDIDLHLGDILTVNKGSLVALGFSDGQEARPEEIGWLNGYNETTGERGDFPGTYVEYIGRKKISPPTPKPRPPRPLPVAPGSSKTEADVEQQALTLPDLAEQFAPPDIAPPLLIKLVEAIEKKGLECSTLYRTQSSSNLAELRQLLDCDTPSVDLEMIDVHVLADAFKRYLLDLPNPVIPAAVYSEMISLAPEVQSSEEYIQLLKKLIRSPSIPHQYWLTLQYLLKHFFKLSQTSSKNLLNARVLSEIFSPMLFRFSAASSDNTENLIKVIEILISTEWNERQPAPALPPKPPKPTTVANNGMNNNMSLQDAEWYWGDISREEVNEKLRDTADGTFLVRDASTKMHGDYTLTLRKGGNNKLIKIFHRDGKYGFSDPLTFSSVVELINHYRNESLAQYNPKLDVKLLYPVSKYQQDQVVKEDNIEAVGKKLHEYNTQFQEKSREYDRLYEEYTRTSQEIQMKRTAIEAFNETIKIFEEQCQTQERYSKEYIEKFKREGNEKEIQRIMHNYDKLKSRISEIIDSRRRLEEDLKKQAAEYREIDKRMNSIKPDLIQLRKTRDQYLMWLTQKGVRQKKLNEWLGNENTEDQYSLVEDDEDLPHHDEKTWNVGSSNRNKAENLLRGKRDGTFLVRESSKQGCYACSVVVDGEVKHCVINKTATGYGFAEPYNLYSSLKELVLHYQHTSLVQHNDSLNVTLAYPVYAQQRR
Assay: ADP-Glo Biochemical PIK3CA Kinase Assay
pIC50: −log10 of the molar value.

Here are 5 compounds together with their reported answers.
{"compound": "CC(C)CC1NC(=O)c2cccc(NC(=O)c3cc(F)cc(C(F)(F)F)c3)c21 (stereo not drawn)", "pIC50": "5.00 to 6.00"}
{"compound": "O=C(Nc1cc(-c2cccc3nonc23)cc2c1C(c1cc(F)ccc1Cl)NC2=O)c1cc(F)cc(C(F)(F)F)c1 (stereo not drawn)", "pIC50": "≥ 7.00"}
{"compound": "O=C(Nc1cc(Nc2cn[nH]c2)cc2c1C(c1cc(F)ccc1Cl)NC2=O)c1cc(F)cc(C(F)(F)F)c1 (stereo not drawn)", "pIC50": "≥ 7.00"}
{"compound": "O=C1N[C@H](c2cc(F)ccc2Cl)c2c(NC(=O)N3CCc4cc(F)ccc43)cc(-c3cnn(C(F)F)c3)cc21 (single isomer, unassigned)", "pIC50": "5.00 to 6.00"}
{"compound": "O=C(Nc1cc(Br)cc2c1C(c1cc(F)ccc1Cl)NC2=O)NC1(CC(F)(F)F)CC1 (stereo not drawn)", "pIC50": "4.00 to 5.00"}

Now consider the entry below.
Qu. For N#Cc1cncn1Cc1cc(NC(=O)c2cc(F)cc(C(F)(F)F)c2)c2c(c1)C(=O)N[C@@H]2c1cc(F)ccc1Cl (stereo in doubt) , what is its reported pIC50?
Ans. 6.30 to 7.00

###

IC50 for assorted compounds
Biological target: H1047R PIK3CA enzyme (Homo sapiens, UniProt P42336, H1047R)
Assay: ADP-Glo Biochemical PIK3CA Kinase Assay

{"compound": "O=C(Nc1cccc2c1C(c1ccc3ccccc3c1)NC2=O)c1cc(F)cc(C(F)(F)F)c1 (centres unmarked) [Compound I-371]", "attribute.measured": "IC50", "result": "10000 to 100000 nM"}

Qu. What value of measured IC50 is listed for Nc1nn(C(=O)Nc2cccc3c2C(c2cc(F)ccc2Cl)NC3=O)c2ccc(F)cc12 (centres unmarked) [Compound I-2431] ?
Ans. 500 to 1000 nM

Qu. Consider next the compound O=C(Nc1cc(-c2cnn(C3COC3)c2)cc2c1C(c1cc(F)ccc1Cl)NC2=O)c1cc(F)cc(C(F)(F)F)c1 (centres unmarked) [Compound I-904] in the same way.
Ans. ≤ 100 nM

Qu. Then what about the compound N#CCCc1cc(NC(=O)N2C[C@@H](O)c3cc(F)ccc32)c2c(c1)C(=O)N[C@@H]2c1cc(F)ccc1Cl (single isomer, unassigned) [Compound I-2348] ?
Ans. 1000 to 10000 nM

Qu. Cool, now O=C(Nc1cc(N2CCCC(F)(F)C2)nc2c1C(c1cc(F)ccc1Cl)NC2=O)c1cc(F)cc(C(F)(F)F)c1 (centres unmarked) [Compound I-538]
Ans. ≤ 100 nM

Qu. Repeat with O=C(Nc1cc(-c2ccc3ncnn3c2)cc2c1[C@@H](c1cc(F)ccc1Cl)NC2=O)c1cc(F)cc(C(F)F)c1 (stereo in doubt) [Compound I-1172]
Ans. 10000 to 100000 nM

###

Molecular target: H1047R PIK3CA enzyme (Homo sapiens, UniProt P42336, H1047R)
Experiment: ADP-Glo Biochemical PIK3CA Kinase Assay
pIC50: −log10 of the molar value.
attribute.measured: pIC50

Here is how some compounds turned out for pIC50.
{"compound": "O=C(Nc1cc(O[C@H]2CCCNC2)cc2c1C(c1cc(F)ccc1Cl)NC2=O)c1cc(F)cc(C(F)(F)F)c1 (mixture of isomers) [Compound I-1527]", "result": "6.30 to 7.00"}
{"compound": "O=C(Nc1cc(-c2ccc3ncnn3c2)cc2c1C(c1cc(F)ccc1Cl)NC2=O)C(=O)c1ccccc1 (centres unmarked) [Compound I-1730]", "result": "5.00 to 6.00"}
{"compound": "O=C(Nc1cc(-c2ccc3ccnn3c2)cc2c1C(c1cc(F)ccc1Cl)NC2=O)c1cc(F)cc(C(F)(F)F)c1 (centres unmarked) [Compound I-1499]", "result": "≥ 7.00"}

With those in mind, consider the next compound.
Qu. What value of measured pIC50 is listed for O=C(Nc1cc(-c2ccc(=O)n(C(F)F)c2)cc2c1[C@H](c1cc(F)ccc1Cl)NC2=O)c1cc(F)cc(C(F)(F)F)c1 [Compound I-1861] ?
Ans. ≥ 7.00

###

Molecular target: H1047R PIK3CA enzyme (Homo sapiens, UniProt P42336, H1047R)
Test: ADP-Glo Biochemical PIK3CA Kinase Assay
attribute.measured: IC50

The examples below pair each entry with its known result.
{"molecule": "CN1CCN(c2cc(NC(=O)c3cc(F)cc(C(F)(F)F)c3)c3c(c2)C(=O)NC3c2cc(F)ccc2Cl)CC1 (stereo not drawn)", "IC50": "≤ 100 nM"}
{"molecule": "CNc1cc(NC(=O)N2C[C@@](O)(C(F)(F)F)c3cc(F)ccc32)c2c(c1)C(=O)N[C@H]2c1cc(F)ccc1Cl (single isomer, unassigned)", "IC50": "100 to 500 nM"}
{"molecule": "O=C(Nc1cc(C2COC2)cc2c1[C@@H](c1cc(F)ccc1Cl)NC2=O)c1cc(F)cc(C(F)(F)F)c1", "IC50": "≤ 100 nM"}
{"molecule": "O=C(Nc1cc(Br)cc2c1C(c1cc(F)ccc1Cl)NC2=O)c1cc(Cl)ccc1F (stereo not drawn)", "IC50": "1000 to 10000 nM"}
{"molecule": "NCCc1cc(NC(=O)N2C[C@@H](O)c3cc(F)ccc32)c2c(c1)C(=O)N[C@@H]2c1cc(F)ccc1Cl (single isomer, unassigned)", "IC50": "100 to 500 nM"}

Qu. Bench note: what IC50 did N#Cc1cnn(Cc2cc(NC(=O)c3cc(F)cc(C(F)(F)F)c3)c3c(c2)C(=O)NC3c2cc(F)ccc2Cl)c1 (stereo not drawn) show?
Ans. ≤ 100 nM

###

Biological target: H1047R PIK3CA enzyme (Homo sapiens, UniProt P42336, H1047R)
Test: ADP-Glo Biochemical PIK3CA Kinase Assay
pIC50: −log10 of the molar value.
attribute.measured: pIC50

# annotated cases, reported pIC50 shown
{"compound": "Cc1ccccc1[C@@H]1NC(=O)c2c(C(N)=O)ccc(NC(=O)c3cc(F)cc(C(F)(F)F)c3)c21 [Compound I-508]", "pIC50": "≥ 7.00"}
{"compound": "Cc1ccccc1C1NC(=O)c2cc(CS(C)(=O)=O)cc(NC(=O)c3nsc4ccccc34)c21 (stereo not drawn) [Compound I-202]", "pIC50": "≥ 7.00"}

Qu. Tell me reported pIC50 for N[C@]1(C(F)(F)F)CN(C(=O)Nc2cccc3c2[C@H](c2cc(F)ccc2Cl)NC3=O)c2ccc(F)cc21 (single isomer, unassigned) [Compound I-2472] , tested with H1047R PIK3CA enzyme (Homo sapiens, UniProt P42336, H1047R).
Ans. 6.00 to 6.30

Qu. Also need N#Cc1cc(F)cc(C(=O)Nc2cc(Br)cc3c2C(c2cc(F)ccc2Cl)NC3=O)c1 (stereo not drawn) [Compound I-910] , thanks.
Ans. 5.00 to 6.00

Qu. Next up: O=C1N[C@@H](c2cc(F)ccc2Cl)c2c(NC(=O)C3(c4cc(F)cc(C(F)(F)F)c4)CCCC3)cc(Br)cc21 [Compound I-2071]
Ans. 4.00 to 5.00

Qu. Note, next up: O=C1N[C@@H](c2cc(F)ccc2Cl)c2c(NC(=O)N3CCOCC(F)(F)C3)cc(Br)cc21 (single isomer, unassigned) [Compound I-2242]
Ans. 4.00 to 5.00

###

Assay: cells
Details: Homo sapiens, MCF-10A, read-out: MCF10A IC50
pIC50: −log10 of the molar value.
Reported pIC50 is given for each of the following compounds.

{"compound": "N#CCc1cc(NC(=O)N2C[C@@H](O)c3cc(F)ccc32)c2c(c1)C(=O)N[C@H]2c1cc(F)ccc1Cl (single isomer, unassigned)", "pIC50": "> 6.00"}
{"compound": "[2H]C1(c2ccccc2C)NC(=O)c2cccc(NC(=O)c3csc4ccccc34)c21 (stereo not drawn)", "pIC50": "5.30 to 6.00"}

Qu. What value of pIC50 has been reported for the following compound? O=C1N[C@H](c2cc(F)ccc2Cl)c2c(NC(=O)N3C[C@@H](O)c4cc(F)ccc43)cc(Cl)cc21 (single isomer, unassigned)
Ans. > 6.00

###

Molecular target: H1047R PIK3CA enzyme (Homo sapiens, UniProt P42336, H1047R)
Experiment: ADP-Glo Biochemical PIK3CA Kinase Assay
The reader will find reported IC50 values listed item by item below.

Example cases with answers are listed next.
{"compound": "O=C(Nc1cc(Br)cc2c1C(c1cc(F)ccc1Cl)NC2=O)c1cc(F)cc(CC2CCC2)c1 (stereo not shown) [Compound I-1350]", "tested.target": "H1047R PIK3CA enzyme (Homo sapiens, UniProt P42336, H1047R)", "result": "1000 to 10000 nM"}
{"compound": "CS(=O)(=O)Nc1cc(NC(=O)c2cc(F)cc(C(F)(F)F)c2)c2c(c1)C(=O)NC2c1cc(F)ccc1Cl (stereo not shown) [Compound I-1159]", "tested.target": "H1047R PIK3CA enzyme (Homo sapiens, UniProt P42336, H1047R)", "result": "≤ 100 nM"}
{"compound": "O=C1N[C@@H](c2cc(F)ccc2Cl)c2c(NC(=O)N3C[C@@H](O)C[C@@H]3CC(F)(F)F)cccc21 (racemic) [Compound I-2164]", "tested.target": "H1047R PIK3CA enzyme (Homo sapiens, UniProt P42336, H1047R)", "result": "1000 to 10000 nM"}

Qu. Entry O=C1NC(c2cc(F)ccc2Cl)c2c(NC(=O)C3CCc4ccccc4CC3)cccc21 (stereo not shown) [Compound I-2374] has what IC50?
Ans. 10000 to 100000 nM

Qu. Then what about the compound Cc1noc(C)c1Nc1cc(NC(=O)c2cc(F)cc(C(F)(F)F)c2)c2c(c1)C(=O)NC2c1cc(F)ccc1Cl (stereo not shown) [Compound I-923] ?
Ans. ≤ 100 nM

Qu. Another compound: O=C(Nc1cccc2c1C(c1cccc3ccccc13)NC2=O)c1cc(F)cc(C(F)(F)F)c1 (stereo not shown) [Compound I-431]
Ans. 1000 to 10000 nM

Qu. Another: CC(C)n1cc(-c2cc(NC(=O)c3cc(F)cc(C(F)(F)F)c3)c3c(n2)C(=O)NC3c2cc(F)ccc2Cl)ccc1=O (stereo not shown) [Compound I-593]
Ans. ≤ 100 nM
